pKi: −log10 of the molar value.
Collected from the literature: pKi of various compounds toward Hepatocyte growth factor receptor (Homo sapiens, UniProt P08581).

Incoming: Give pKi for the following compound: Nc1nn2cc(CCCN3CCSCC3)cnc2c1-c1ccccn1
Outgoing: 5.30 to 6.30

Incoming: Name the recorded pKi of the item Cc1c(C(=O)Nc2ccc(-c3cccc4[nH]nc(N)c34)c(F)c2)c(=O)n(-c2ccccc2)n1CC(C)(C)O in your answer.
Outgoing: 7.07

Incoming: Please give the documented pKi of CN(C)c1ccnc2[nH]cc(-c3oncc3-c3cccc(F)c3F)c12
Outgoing: 4.90 to 6.00

Incoming: Quote pKi reported for Nc1ncc(C2=CCC(N)CC2)cc1-c1nnnn1-c1cccc(F)c1F (centres unmarked) please.
Outgoing: ≥ 7.00

Incoming: Fill in pKi for record Fc1cccc(-c2cnoc2-c2c[nH]c3nc(Cl)ccc23)c1F
Outgoing: 4.90 to 6.00

Incoming: Report measured pKi; entry is Cc1ccc(-c2c(N)nn3cc(-c4ccncc4)cnc23)nc1
Outgoing: > 6.30

Incoming: Assign pKi to the following record: CNCCN(C)C(=O)c1cccc(-c2cnc3c(-c4ccccn4)c(N)nn3c2)c1
Outgoing: > 6.30

Incoming: Write down pKi measured for item Nc1nn2cc(-c3ccc(N4CCC[C@H]4CN4CCCC4)nc3)cnc2c1-c1ccccn1
Outgoing: > 6.30

Incoming: // fetch pKi given entry CCOC(=O)C1CCCN(CCCc2cnc3c(-c4ccccn4)c(N)nn3c2)C1 (centres unmarked)
Outgoing: 5.30 to 6.30

Incoming: // Input: CCOc1cccc(-c2cnc(N)c(-c3nnnn3-c3cccc(F)c3F)c2)c1 . Output its pKi only.
Outgoing: 6.00 to 7.00

Incoming: State, in one line, measured pKi of CN(C)Cc1ccc(-c2cnc(N)c(-c3nnnn3-c3cccc(F)c3F)c2)cn1
Outgoing: 6.00 to 7.00

Incoming: Find the measured pKi of Nc1ncc(-c2ccccc2)nc1C(=O)N[C@H](CO)c1nnc2ccc(Nc3cccc(Cl)c3)nn12 and report it.
Outgoing: ≥ 6.60

Incoming: Indicate the recorded pKi value for this compound: Cc1ccc(Cl)cc1-n1nnnc1-c1cc(-c2cnn(C3CCNCC3)c2)cnc1N
Outgoing: 6.00 to 7.00

Incoming: Find the measured pKi of CS(=O)(=O)Nc1cccc(-c2cnc(N)c(-c3nnnn3-c3cccc(F)c3F)c2)c1 and report it.
Outgoing: ≥ 7.00

Incoming: For the compound Nc1ccc(-c2cnc(N)c(-c3nnnn3-c3cccc(F)c3F)c2)cc1[N+](=O)[O-] , report pKi.
Outgoing: ≥ 7.00

Incoming: Give pKi for the following compound: Nc1ccc(-c2cnc(N)c(-c3nnnn3-c3cccc(Cl)c3Cl)c2)cc1
Outgoing: ≥ 7.00

Incoming: Please give the documented pKi of Nc1ncc(-c2ccc(CN3CCCC3)cc2)cc1-c1nnnn1-c1cccc(F)c1F
Outgoing: ≥ 7.00

* * *

Dear all, I have gathered published pKi values for Hepatocyte growth factor receptor (Homo sapiens); the list follows.
pKi: −log10 of the molar value.

Incoming: # return recorded pKi for entry CC(=O)Nc1ccc(-c2cnc(N)c(-c3nnnn3-c3cccc(Cl)c3C)c2)cc1
Outgoing: 6.00 to 7.00

Incoming: Retrieve pKi measured for C[C@@H](NC(=O)c1nc(-c2ccccc2)cnc1N)c1nnc2ccc(Nc3cccc(Cl)c3)nn12 and print it.
Outgoing: ≥ 6.60

Incoming: Please report the measured pKi for Nc1ncc(-c2cccnc2)cc1-c1nnnn1-c1cccc(F)c1F
Outgoing: 6.00 to 7.00

Incoming: Assign pKi to the following record: CCOC(=O)Cn1cc(-c2cnc(N)c(-c3nnnn3-c3cccc(F)c3F)c2)cn1
Outgoing: ≥ 7.00

Incoming: Fill in pKi for record CN(Cc1cccnc1N)Cc1nnc2ccc(Nc3cccc(Cl)c3)nn12
Outgoing: 5.60 to 6.60

Incoming: For the compound Fc1cccc(-n2cnnc2-c2c[nH]c3ncc(-c4ccc(CN5CCOCC5)cc4)cc23)c1F , give its measured pKi value.
Outgoing: > 6.70

Incoming: Give the value of pKi reported for the following: CC(=O)Nc1ccc(-c2cnc(N)c(-c3nncn3-c3cccc(Cl)c3Cl)c2)cc1
Outgoing: 6.00 to 7.00

Incoming: Specify measured pKi for CCCCNC(=O)c1ccc(-c2cnc3c(-c4ccccn4)c(N)nn3c2)nc1 .
Outgoing: 5.30 to 6.30

Incoming: Tell me pKi reported for Cn1c(Nc2cccc(F)c2)ncc(-c2ccc(Oc3ccnc(NC(=S)N4CCCC4)c3)cn2)c1=O
Outgoing: 7.52

Incoming: Assign pKi to the following record: Nc1ncc(-c2cnn(C3CCN(CC4CC4)CC3)c2)cc1-c1nnnn1-c1cccc(F)c1F
Outgoing: ≥ 7.00

Incoming: Specify measured pKi for N#CCN1CCC(n2cc(-c3cnc(N)c(-c4nnnn4-c4cccc(F)c4F)c3)cn2)CC1 .
Outgoing: ≥ 7.00

Incoming: Supply pKi value. Item: C[C@@H](NC(=O)c1nc(C#N)cnc1N)c1nnc2ccc(Nc3cccc(Cl)c3)nn12
Outgoing: ≥ 6.60

Incoming: Identify the reported pKi for the following entry. CNCCCN(C)Cc1ccc(-c2cnc3c(-c4ccccn4)c(N)nn3c2)cc1
Outgoing: > 6.30

Incoming: For the compound CC(C)c1nn(C)cc1-c1nn2c(Cc3c(F)cc4ncccc4c3F)nnc2s1 , give its measured pKi value.
Outgoing: 8.62

Incoming: Quote pKi reported for CNC(=O)c1cnc2c(-c3ccccn3)c(N)nn2c1 please.
Outgoing: 5.30 to 6.30

Incoming: Given the compound Nc1ncc(-c2cnn([C@H]3CCOC3)c2)cc1-c1nnnn1-c1cccc(F)c1F , write its reported pKi.
Outgoing: ≥ 7.00

Incoming: For CN(C)CCN(Cc1ccccc1)C(=O)c1c(N)nn2cc(-c3ccncn3)cnc12 , write its pKi.
Outgoing: 5.30 to 6.30
